Listed below: kinase still bound, per cent of control values for each entry.
# Target: ACVR2A (human)
# Assay Text: KINOMEscan competition binding
# Measurement Context: compound 10.0 µM
Measured Endpoint: kinase still bound, per cent of control (%)

Smiles Str | Unit Annotation | Numeric Readout
CCOc1cc2ncc(C#N)c(Nc3ccc(OCc4ccccn4)c(Cl)c3)c2cc1NC(=O)/C=C/CN(C)C | % | 100
COc1cc(C(=O)NC2CCN(C)CC2)ccc1Nc1ncc2c(n1)N(C1CCCC1)CCC(=O)N2C(C)C | % | 100
C[C@@H](Oc1cc(-n2cnc3ccc(CN4CCN(C)CC4)cc32)sc1C(N)=O)c1ccccc1C(F)(F)F | % | 100
CCCS(=O)(=O)Nc1ccc(F)c(C(=O)c2c[nH]c3ncc(-c4ccc(Cl)cc4)cc23)c1F | % | 100
CCN1CCN(Cc2ccc(Nc3ncc4c(n3)N(C)c3ccccc3C(=O)N4C)cc2C(F)(F)F)CC1 | % | 56
Cc1ccc2nc(NCCN)c3ncc(C)n3c2c1 | % | 92
O=C(NC1CC1)c1cccc(-c2ccc3c(NC(=O)C4CC4)n[nH]c3c2)c1 | % | 92
O=C(NOC[C@H](O)CO)c1ccc(F)c(F)c1Nc1ccc(I)cc1F | % | 80
Cc1ccc(C(=O)Nc2cccc(C(F)(F)F)c2)cc1Nc1cncc(C(N)=O)c1 | % | 100

###

# System: KIT (human), P10721 [V559D/T670I]
# Sequence (P10721 whole entry V559D/T670I, looked up): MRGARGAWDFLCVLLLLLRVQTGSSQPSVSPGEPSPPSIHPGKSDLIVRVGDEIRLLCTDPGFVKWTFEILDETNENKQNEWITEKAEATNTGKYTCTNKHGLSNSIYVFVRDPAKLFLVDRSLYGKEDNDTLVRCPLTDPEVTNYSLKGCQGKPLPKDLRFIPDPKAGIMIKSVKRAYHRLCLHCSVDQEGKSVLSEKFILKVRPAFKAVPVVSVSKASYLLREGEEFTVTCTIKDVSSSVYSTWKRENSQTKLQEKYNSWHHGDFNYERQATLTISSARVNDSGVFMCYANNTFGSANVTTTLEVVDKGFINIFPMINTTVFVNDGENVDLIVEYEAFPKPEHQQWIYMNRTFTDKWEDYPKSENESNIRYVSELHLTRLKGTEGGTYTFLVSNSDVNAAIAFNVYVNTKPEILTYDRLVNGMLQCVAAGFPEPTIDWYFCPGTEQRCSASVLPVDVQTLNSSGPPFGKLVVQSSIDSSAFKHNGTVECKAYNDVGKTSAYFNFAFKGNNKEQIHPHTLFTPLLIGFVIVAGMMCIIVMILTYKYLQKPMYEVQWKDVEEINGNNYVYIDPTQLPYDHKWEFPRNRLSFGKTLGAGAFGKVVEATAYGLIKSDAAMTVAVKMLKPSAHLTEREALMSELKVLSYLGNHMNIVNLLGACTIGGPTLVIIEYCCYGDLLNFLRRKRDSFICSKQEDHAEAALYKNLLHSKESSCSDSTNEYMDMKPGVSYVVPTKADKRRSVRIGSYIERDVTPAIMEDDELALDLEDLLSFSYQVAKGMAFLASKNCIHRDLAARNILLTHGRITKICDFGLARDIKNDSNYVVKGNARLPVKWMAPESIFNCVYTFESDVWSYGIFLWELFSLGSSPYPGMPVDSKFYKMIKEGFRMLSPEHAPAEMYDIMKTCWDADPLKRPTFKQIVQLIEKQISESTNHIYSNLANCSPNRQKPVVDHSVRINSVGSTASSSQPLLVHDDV
# Assay Text: KINOMEscan competition binding
# Measurement Context: compound 10.0 µM
Measured Endpoint: kinase still bound, per cent of control

Compound | Result
O=c1[nH]c2ccccc2n1C1CCN(Cc2ccc(-c3nc4cc5[nH]cnc5cc4nc3-c3ccccc3)cc2)CC1 | 100%
COc1cc(C(=O)NC2CCN(C)CC2)ccc1Nc1ncc2c(n1)N(C1CCCC1)CCC(=O)N2C(C)C | 100%
COCC(=O)NC/C=C/c1ccc2ncnc(Nc3ccc(Oc4ccc(C)nc4)c(C)c3)c2c1 | 100%
COc1ccc(N(C(=O)Oc2cc(C(=O)Nc3cccc(C(F)(F)F)c3)ccc2C)c2ccnc(Nc3ccc(N4CCN(C)CC4)cc3)n2)c(OC)c1 | 3.8%
CCCS(=O)(=O)Nc1ccc(F)c(C(=O)c2c[nH]c3ncc(-c4ccc(Cl)cc4)cc23)c1F | 60%
CCCS(=O)(=O)Nc1ccc(F)c(C(=O)c2c[nH]c3ncc(Cl)cc23)c1F | 46%
N#CCNC(=O)c1ccc(-c2ccnc(Nc3ccc(N4CCOCC4)cc3)n2)cc1 | 45%
COc1cc2ncn(-c3cc(OCc4ccccc4C(F)(F)F)c(C(N)=O)s3)c2cc1OC | 21%
O=C(NC1CC1)c1cccc(-c2ccc3c(NC(=O)C4CC4)n[nH]c3c2)c1 | 43%
N#C/C(=C1/Nc2ccccc2S1)c1ccnc(NCCc2cccnc2)n1 | 52%
C[C@@H](Oc1cc(-c2cnn(C3CCNCC3)c2)cnc1N)c1c(Cl)ccc(F)c1Cl | 7%
OCCCNc1cc(-c2ccnc(Nc3cccc(Cl)c3)n2)ccn1 | 100%
CN(C)C/C=C/C(=O)Nc1cccc(Nc2ncc3c(n2)N(C)c2ccccc2C(=O)N3C)c1 | 65%
CC[C@@H]1C(=O)N(C)c2cnc(Nc3ccc(C(=O)NC4CCN(C)CC4)cc3OC)nc2N1C1CCCC1 | 100%
CCN(CC)CCCCNc1ncc2c(n1)N(C)C(=O)N(c1c(Cl)c(OC)cc(OC)c1Cl)C2 | 100%
CNC(=O)Nc1ccc(-c2nc(N3CC4CCC(C3)O4)c3cnn(C4CCC5(CC4)OCCO5)c3n2)cc1 | 100%
C=CC(=O)Nc1ccc(CN(C(=O)Nc2c(Cl)c(OC)cc(OC)c2Cl)c2cc(Nc3ccc(N4CCN(C)CC4)cc3)ncn2)cc1 | 29%
Cc1ccc2nc(NCCN)c3ncc(C)n3c2c1 | 39%
CCN1CCN(Cc2ccc(NC(=O)c3ccc(C)c(/C=C/c4cnc5[nH]ccc5c4OC)c3)cc2C(F)(F)F)CC1 | 0.05%
CNC(=O)c1cc(Oc2ccc(NC(=O)Nc3ccc(Cl)c(C(F)(F)F)c3)cc2)ccn1 | 0.1%
COc1cc2ncnc(Nc3cccc(Cl)c3)c2cc1OC | 49%
Cn1c(=O)n(-c2ccc(C(C)(C)C#N)cc2)c2c3cc(-c4cnc5ccccc5c4)ccc3ncc21 | 100%
Cc1n[nH]c2ccc(-c3cncc(OC[C@@H](N)Cc4c[nH]c5ccccc45)c3)cc12 | 100%
COc1cc(N2CCN(C)CC2)ccc1Nc1nc(N)c(C(=O)c2c(Cl)cccc2Cl)s1 | 100%
O=C1Nc2ccc(I)cc2/C1=C/c1cc(Br)c(O)c(Br)c1 | 23%
CCN(CC)CCCCNc1ncc2cc(-c3cc(OC)cc(OC)c3)c(NC(=O)NC(C)(C)C)nc2n1 | 100%
O=C1NC(=O)/C(=C/c2ccc3nccc(-c4ccncc4)c3c2)S1 | 76%
CN(C)C/C=C/C(=O)Nc1ccc(C(=O)Nc2cccc(Nc3nccc(-c4cccnc4)n3)c2)cc1 | 10%
C=CC(=O)Nc1cc(-n2c(=O)ccc3cnc4ccc(-c5cn[nH]c5)cc4c32)ccc1C | 96%
C=CC(=O)Nc1cccc(Oc2nc(Nc3ccc(N4CCN(C)CC4)cc3OC)ncc2Cl)c1 | 100%
COc1cc(C)c(Sc2cnc(NC(=O)c3ccc(CNC(C)C(C)C)cc3)s2)cc1C(=O)N1CCN(C(C)=O)CC1 (configuration not stated) | 100%
CC1=C(C(=O)Nc2cc3cn[nH]c3cc2F)C(c2ccc(C(F)(F)F)cc2)CC(=O)N1 (configuration not stated) | 88%
C=CC(=O)Nc1cc(NC(=O)c2ccc(C)c(NC(=O)c3ccno3)c2)cc(C(F)(F)F)c1 | 77%
CS(=O)(=O)N1CCN(Cc2cc3nc(-c4cccc5[nH]ncc45)nc(N4CCOCC4)c3s2)CC1 | 100%
O=c1cc(N2CCOCC2)oc2c(-c3cccc4c3sc3ccccc34)cccc12 | 100%
COc1cc(C(=O)NC2CCN(C)CC2)ccc1Nc1ncc2c(n1)N(C1CCCC1)C(C)CC(=O)N2C (configuration not stated) | 100%
Cc1cc([C@@H](C)Nc2ccccc2C(=O)O)c2nc(N3CCOCC3)cc(=O)n2c1 | 91%
